Source listed as patent US12310946B2.

# test description: Clinical study #4: PK of edaravone oral formulation (formula #2), high-fat meal 1 hour after administration vs fasted
# Assay type: in vivo, human
# experimental setup: male, human, plasma, po, 100 mg, 100 mg oral, formula #2, fasted, mean (n = 9)
recorded metric: AUC(0-inf) (ng·h/mL)
Express your answer in ng·h/mL, writing the number without its unit.

Reported AUC(0-inf), molecule CC1=NN(c2ccccc2)C(=O)C1 [Edaravone, 3-methyl-1-phenyl-2-pyrazolin-5-one] : ____
1650

* * *

# test description: Clinical study #4: PK of edaravone oral formulation (formula #2), high-fat meal 1 hour after administration vs fasted
# Format: in vivo, human
# experimental setup: male, human, plasma, po, 100 mg, 100 mg oral, formula #2, 1 h before high-fat meal, mean (n = 9)
recorded metric: half-life (h)
Express it in h; write the number only.

For CC1=NN(c2ccccc2)C(=O)C1 [Edaravone, 3-methyl-1-phenyl-2-pyrazolin-5-one] , what is its reported half-life?
9.65
